Quick reference: inhibition in vivo at 100 mg/kg of the listed items.
Test system: Sarcoma 180
measurementProtocol: In vivo antitumor activity against Sarcoma 180
Set-up: species or system male ICR mice
statedConditions: Mus musculus, Sarcoma-180, ip, 288 h; 100 mg/kg/day, i.p., days 1, 5 and 9; tumor s.c.; tumor weight day 12; read-out: % Inhibition of tumor growth
Where a name gives a salt, the structure may show the parent alone.
Your answer is read as %, so omit the unit and give the number.

Form: compound = CC(C)[C@@H](N)C(=O)OC[C@H]1CN2C(=O)C[C@@H]2O1.Cl (mixture of isomers) [Example 60B, hydrochloride] ; inhibition in vivo at 100 mg/kg = 77.7

The compound identified as CC(C)[C@H](N)C(=O)N[C@@H](COCc1ccccc1)C(=O)OCC1CN2C(=O)CC2O1 (some centres unmarked) [Example 74B, hydrochloride] registered its inhibition in vivo at 100 mg/kg at 84.1

The compound N[C@@H](Cc1ccccc1)C(=O)NCC1CN2C(=O)CC2O1 (some centres unmarked) [Example 63B, hydrochloride] showed inhibition in vivo at 100 mg/kg equal to 57.6

Just so you know, measured inhibition in vivo at 100 mg/kg for N[C@@H](CC(=O)O)C(=O)NCC1CN2C(=O)CC2O1 (some centres unmarked) [Example 67B] came out at 65.9

Kindly note the recorded inhibition in vivo at 100 mg/kg for O=C(NCCCC[C@H](NC(=O)OCc1ccccc1)C(=O)OCC1CN2C(=O)CC2O1)OCc1ccccc1 (some centres unmarked) [Example 77A] , which is 67.3

Looking up C[C@@H](N)C(=O)OC[C@H]1CN2C(=O)C[C@@H]2O1.Cl (mixture of isomers) [Example 51B, hydrochloride] , I see its inhibition in vivo at 100 mg/kg listed as 93.8

Value of measured inhibition in vivo at 100 mg/kg for the entry C[C@@H](NC(=O)Cc1cccs1)C(=O)N[C@H](C)C(=O)OCC1CN2C(=O)CC2O1 (some centres unmarked) [Example 52] : 70.7

Entry under test: N[C@H](CCC(=O)NCC1CN2C(=O)CC2O1)C(=O)O (some centres unmarked) [Example 69B] . Its inhibition in vivo at 100 mg/kg was 37.8

====

Tested on: Sarcoma 180
measurementProtocol: In vivo antitumor activity against Sarcoma 180
Set-up: species or system male ICR mice
statedConditions: 100 mg/kg/day, i.p., days 1, 5 and 9
Counter-ions that a name gives are not always drawn.
measurementLabel: Mortality in 12 days

{"compound": "COc1ccc(S(=O)(=O)NC[C@H]2CN3C(=O)C[C@@H]3O2)cc1 (relative stereo)", "result": "1/6"}
{"compound": "CC(C)[C@@H](N)C(=O)OC[C@H]1CN2C(=O)C[C@@H]2O1.Cl (mixture of isomers) [Example 60B]", "result": "0/6"}
{"compound": "O=C1C[C@H]2O[C@H](CNC(=O)C(F)(F)F)CN12 (racemic)", "result": "2/6"}
{"compound": "C[C@@H](N)C(=O)OC[C@H]1CN2C(=O)C[C@@H]2O1.Cl (mixture of isomers) [Example 51B]", "result": "5/6"}

Measured Mortality in 12 days of CC(C)[C@@H](N)C(=O)N[C@@H](C(=O)OCC1CN2C(=O)CC2O1)C(C)C (stereo partly shown) [Example 62B, hydrochloride] : 0/6

Lookup result for N[C@@H](Cc1ccccc1)C(=O)NCC1CN2C(=O)CC2O1 (stereo partly shown) [Example 63B, hydrochloride] ; measured Mortality in 12 days: 0/6

Measured Mortality in 12 days, N[C@@H](CC(=O)O)C(=O)NCC1CN2C(=O)CC2O1 (stereo partly shown) [Example 67B] : 0/6

Record summary for N[C@H](CCC(=O)NCC1CN2C(=O)CC2O1)C(=O)O (stereo partly shown) [Example 69B] : reported Mortality in 12 days = 0/6

Entry O=C(NC[C@@H]1CN2C(=O)C[C@H]2O1)c1ccccc1 (racemic) — recorded Mortality in 12 days = 0/6
